Test: NCI Yeast Anticancer Drug Screen. Data for the mlh1 rad18 strain (AID 175)
Conditions: S. cerevisiae mlh1 rad18 strain growth inhibition; at 50.0 µM; stronger effect = higher value
The panel holds about 79,000 compounds, 15% with a hit somewhere; the sample as a whole holds those more often.
Outcome label depends on growth inhibition relative to 20%: at/above gives Fulfilled, below gives Not fulfilled.

// query Is the recorded value of growth inhibition equal to or greater than 20% for this compound? CC12CCC3C(CC(N4CC4)C4(O)CC(O)CCC34C)C1CCC2=O (configuration not stated)
// result Not fulfilled

// query Is the recorded value of growth inhibition equal to or greater than 20% for this compound? CC(NC(=O)c1ccccc1)N(C)[N+](=O)[O-] (configuration not stated)
// result Not fulfilled

// query Is the recorded value of growth inhibition equal to or greater than 20% for this compound? `O=S(=O)(O)O.[In]`
// result Not fulfilled

// query Is the recorded value of growth inhibition equal to or greater than 20% for this compound? `Oc1c(Cl)cc(Cl)cc1C1N(Cc2ccc(N(CCCl)CCCl)cc2Cl)CCCN1Cc1ccc(N(CCCl)CCCl)cc1Cl`
// result Not fulfilled

// query Is the recorded value of growth inhibition equal to or greater than 20% for this compound? CC(=O)OC(c1ccccc1Cl)C(Cl)(Cl)Cl (configuration not stated)
// result Not fulfilled

// query Is the recorded value of growth inhibition equal to or greater than 20% for this compound? O=NN1CCCCCC1C(=O)O (configuration not stated)
// result Not fulfilled

// query Is the recorded value of growth inhibition equal to or greater than 20% for this compound? ClCCN(CCCl)CC(Cl)COc1cccc2ccccc12 (configuration not stated)
// result Fulfilled

// query Is the recorded value of growth inhibition equal to or greater than 20% for this compound? COC(=O)C1=C(C)NC(C)=C2C(=O)Oc3ccccc3C12 (configuration not stated)
// result Not fulfilled

// query Is the recorded value of growth inhibition equal to or greater than 20% for this compound? O=C(O)CC(=O)O.[NH-]C1CCCCC1[NH-].[Pt+2] (configuration not stated)
// result Not fulfilled

// query Is the recorded value of growth inhibition equal to or greater than 20% for this compound? `O=c1oc2cc(O)ccc2c(O)c1C(c1ccc2ccccc2c1)c1c(O)c2ccc(O)cc2oc1=O`
// result Not fulfilled

// query Is the recorded value of growth inhibition equal to or greater than 20% for this compound? `COc1ccc(CCN2CCOCC2)cc1`
// result Fulfilled

// query Is the recorded value of growth inhibition equal to or greater than 20% for this compound? COc1ccc2c3c1OC1C(OC)(OC)C=C[C@@]4(Br)[C@@H](C2)N(CC2CC2)CC[C@]314 (some centres not stated)
// result Not fulfilled

---

Assay: NCI Yeast Anticancer Drug Screen. Data for the cln2 rad14 strain (AID 165);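 note: 0% = growth equal to vehicle treated cultures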
Settings: S. cerevisiae cln2 rad14 strain, at 50.0 µM, stronger effect = higher value
This is part of a sample that, as a whole, favours compounds with a hit. Of some 79,000 tested, about 15% had one in any assay.
Kindly supply the reported growth inhibition values for the records listed here.
Numeric only. Scale: %

growth inhibition recorded for this compound, `C/C(CC(C)(C)N1CC1)=N\N` , is -20.1

growth inhibition recorded for this compound, `N.N.N.N.N.O=[N+]([O-])[O-].[Co+3].[O-][Cl+3]([O-])([O-])[O-]` , is -3.15

growth inhibition recorded for this compound, COc1cc(C2c3cc4c(cc3OC(C)(O)C2C)OCO4)cc(OC)c1OC (stereo not drawn) , is -25.4

growth inhibition recorded for this compound, `Cc1ccc(P(=O)(O)O)cc1` , is 2.6

growth inhibition recorded for this compound, `CNC(=O)Oc1ccc(Br)cc1Br` , is -3.55

growth inhibition recorded for this compound, Oc1ccccc1C1NCCc2[nH]cnc21 (stereo not drawn) , is 30.8

growth inhibition recorded for this compound, `O=C(O)CCCC(=O)CCCC(=O)O.[Pb]` , is -36.1

growth inhibition recorded for this compound, CC(C)NCC(O)c1ccc(Cl)c(Cl)c1 (stereo not drawn) , is 7.25

growth inhibition recorded for this compound, CCCCCCNC1C=CCC1 (stereo not drawn) , is -15.6

growth inhibition recorded for this compound, `O=C(CCCN1CCC2(CC1)C(=O)NCN2c1ccccc1)c1ccccc1` , is -18.4

growth inhibition recorded for this compound, `Oc1ccc(Nc2ncnc3nc[nH]c23)cc1CN(CCCl)CCCl` , is -45.4

growth inhibition recorded for this compound, `COc1ccc(/C=C(/C)[N+](=O)[O-])cc1OC` , is 97.2

growth inhibition recorded for this compound, `Cc1ccc2c(c1)Cc1ccccc1-2` , is 23.7
